Numbers sourced from the supplement of paper PMC9233669.

Test system: biotinyl-Trp-oxazolone
Method Summary: self-aminoacylation, catalytic enhancement (BWO) (fold over background); higher = more active; k-Seq, kA / k0A0; sequences stand for … in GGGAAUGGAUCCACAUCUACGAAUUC…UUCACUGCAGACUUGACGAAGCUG
Fewer inactive variants are shown than the library holds.
So basically: self-aminoacylation at 2 or higher? That is Yes. Lower than 2? That is No.

Exercise: Decide: self-aminoacylation of AUUCAUCUACGUCAUCGGGUG [Fam2.2 aminoacylation ribozyme variant] >= 2?
Key: Yes

Exercise: Decide: self-aminoacylation of AUGACCCUUGUCAUCGAGUGA [Fam2.1 aminoacylation ribozyme variant] >= 2?
Key: Yes

Exercise: Decide: self-aminoacylation of CUCCUUCAAACGAUCGGUCUG [Fam1A.1 aminoacylation ribozyme variant] >= 2?
Key: Yes

Exercise: Decide: self-aminoacylation of CCACACUCCAACCAAUCGGUC [Fam1B.1 aminoacylation ribozyme variant] >= 2?
Key: Yes

Exercise: Decide: self-aminoacylation of CUUACCCUGAUCAUCGAGUGA [Fam2.1 aminoacylation ribozyme variant] >= 2?
Key: Yes

Exercise: Decide: self-aminoacylation of AUUCACCUAGGUCAACUGGUG [Fam2.2 aminoacylation ribozyme variant] >= 2?
Key: Yes

Exercise: Decide: self-aminoacylation of CAGUUUGAUAAUAGUCGCAAG [Fam3.1 aminoacylation ribozyme variant] >= 2?
Key: No

Exercise: Decide: self-aminoacylation of CUACUUCAAACAACCAGUCUG [Fam1A.1 aminoacylation ribozyme variant] >= 2?
Key: No

Exercise: Decide: self-aminoacylation of AAGUUUGCUAAUGGUAGCAAG [Fam3.1 aminoacylation ribozyme variant] >= 2?
Key: No

Exercise: Decide: self-aminoacylation of CCACAGUUCAACCAAUCGGUC [Fam1B.1 aminoacylation ribozyme variant] >= 2?
Key: Yes
